# System: RAW264.7
# test name: Antiinflammatory activity in mouse RAW264.7 cells assessed as inhibition of LPS-induced IL6 release at 10 uM incubated for 2 hrs prior to LPS challenge measured after 22 hrs by ELISA relative to LPS-treated control
# Type: functional
Activity calls are given as the source filed them. No cut-off for these calls is given here.
property: inhibition

Example entries begin here.
O=c1/c(=C/c2ccccc2[N+](=O)[O-])sc2nc3ccccc3n12	Active
CCOC(=O)C1=C(C)N=c2s/c(=C\c3ccc(C)cc3C)c(=O)n2C1c1ccccc1 (stereo not drawn)	Active
O=c1/c(=C/c2ccccc2F)sc2nc3ccccc3n12	Active
CCOC(=O)C1=C(C)N=c2s/c(=C\c3cccc(OC)c3O)c(=O)n2C1c1ccccc1 (stereo not drawn)	Active

Shifting focus to the compound that follows.
# inhibition (compound: `O=c1/c(=C/c2ccccc2Cl)sc2n1CCN=2` ) is Active

====

# Tested on: RAW264.7
# test name: Cytotoxicity against mouse RAW264.7 cells assessed as cell viability at 20 uM after 48 hrs by MTT assay
# Assay type: cell-based
# test parameters: raw264.7, 48 h
property: Activity

Cc1ccc(/C=c2\sc3nc4ccccc4n3c2=O)s1	Non-toxic
O=c1/c(=C/c2ccc(N3CCOCC3)cc2)sc2n1CCN=2	Non-toxic
O=c1/c(=C/c2ccc3ccccc3c2)sc2nc3ccccc3n12	Non-toxic

====

# System: RAW264.7
# test name: Antiinflammatory activity in mouse RAW264.7 cells assessed as inhibition of LPS-induced TNFalpha release incubated for 2 hrs prior to LPS challenge measured after 22 hrs by ELISA
# Format: functional, cell-based
property: pIC50
Here pIC50 is given on a logarithmic scale as minus log10 of the concentration in mol/L.

Noted for CCOC(=O)C1=C(C)N=c2s/c(=C\c3ccc(N4CCOCC4)cc3)c(=O)n2C1c1ccccc1 (configuration not stated) : its pIC50 reads 5.38
